Assay: Metabolic stability in mouse liver microsomes assessed as half life at 10 uM incubated for 5 mins followed by NADPH addition and measured upto 60 mins by LC-MS analysis
Assay type: ADME, Microsome
Settings: time 65 min
METRIC: half-life at 10 µM (min)
Answers are plain numbers, in min.

Consider "COc1ccc2ncc(F)c(CC[C@@]3(O)CO[C@@H]4[C@@H](NCc5cc6c(cn5)OCCO6)CO[C@@H]43)c2n1" . Its measured half-life at 10 µM is 3

###

Experiment: Permeability across basolateral to apical side in human Caco2 cells at 10 uM by LC-MS/MS analysis
Format: ADME, cell-based
Conditions: Caco-2, read-out: permeability
METRIC: Papp B→A at 10 µM (×10⁻⁶ cm/s)
Give bare numbers, in ×10⁻⁶ cm/s.

Consider "COc1ccc2ncc(F)c(CC[C@@]3(O)CO[C@@H]4[C@@H](NCc5cc6c(cn5)OCCO6)CO[C@@H]43)c2n1" . Its measured Papp B→A at 10 µM is 85.3
